experimental system: PD-1/PD-L1 binding (recombinant human PD-L1-Fc fusion protein and His-PD-1 protein) (Homo sapiens (Human))
Sequence (Q9NZQ7 19-239): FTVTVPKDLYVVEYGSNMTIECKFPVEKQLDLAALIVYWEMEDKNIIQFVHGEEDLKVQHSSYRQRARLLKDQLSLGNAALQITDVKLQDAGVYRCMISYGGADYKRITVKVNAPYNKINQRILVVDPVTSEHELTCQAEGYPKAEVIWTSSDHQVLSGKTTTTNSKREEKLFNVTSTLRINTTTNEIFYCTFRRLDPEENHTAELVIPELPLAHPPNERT
test name: In vitro inhibitory activity against PD-1/PD-L1 binding (HTRF)
details: read-out: IC50 for inhibiting PD-1/PD-L1 binding in vitro
Would you kindly list pIC50 for each of these molecules?
pIC50 is a log-scale quantity: -log10 of the concentration expressed in molar.

Returns the measured pIC50 for the input molecule. Input: "COCC12CCC(CCN3CCc4c(nc(C(=O)Nc5cccc(-c6cccc(NC(=O)c7nc8c(n7C)CCN(CCC79CCC(C(=O)O)(CC7)C9)C8)c6Cl)c5C)n4C)C3)(CC1)C2" 8.63

Would you kindly share the measured pIC50 for "COCC12CCC(CCN3CCc4c(nc(C(=O)Nc5cccc(-c6cccc(NC(=O)c7nc8c(n7C)CCN(CC79CCC(C(=O)O)(CC7)C9)C8)c6Cl)c5C)n4C)C3)(CC1)C2" ? 8.61

What value of pIC50 has been reported for the following molecule? "Cn1c(C(=O)Nc2cccc(-c3cccc(NC(=O)c4nc5c(n4C)CCN(CC46CCC(C(=O)O)(CC4)C6)C5)c3Cl)c2Cl)nc2c1CCN(CCO)C2" 8.34

Fill in the blank: the reported pIC50 of "COCC12CCC(CN3CCc4c(nc(C(=O)Nc5cccc(-c6cccc(NC(=O)c7nc8c(n7C)CCN(CCC79CCC(C(=O)O)(CC7)C9)C8)c6Cl)c5Cl)n4C)C3)(CC1)C2" is ____. 8.43

Report pIC50 for "COCC12CCC(CCN3CCc4c(nc(C(=O)Nc5cccc(-c6cccc(NC(=O)c7nc8c(n7C)CCN(CCC79CCC(C(=O)O)(CC7)C9)C8)c6C)c5Cl)n4C)C3)(CC1)C2" please. 8.72

====

test name: Single-dosing pharmacokinetics test
Assay type: in vivo, B-hPD-1/hPD-L1 female mice
details: female, B-hPD-1/hPD-L1 (humanized), mouse, po; humanized mice, single dose of 100 mg/kg by gavage, plasma
Assign MRT to each entry below.

MRT lookup needed for Cc1c(Nc2nccc3cc(CN4CC[C@@H](O)C4)cnc23)cccc1-c1cccc(-c2nc3cc(CN4CC[C@@H](C(=O)O)C4)cc(C#N)c3o2)c1C [Compound 14 (INCB086550)] , thanks. 5.9 h

Which MRT is listed for Cn1c(C(=O)Nc2cccc(-c3cccc(NC(=O)c4nc5c(n4C)CCN(CCC46CCC(C(=O)O)(CC4)C6)C5)c3Cl)c2Cl)nc2c1CCN(CCC13CCC(C(=O)O)(CC1)C3)C2 [Example 17] ? 4.2 h

// lookup MRT for COCC12CCC(CCN3CCc4c(nc(C(=O)Nc5cccc(-c6cccc(NC(=O)c7nc8c(n7C)CCN(CCC79CCC(C(=O)O)(CC7)C9)C8)c6Cl)c5Cl)n4C)C3)(CC1)C2 [Compound I-6] 10.9 h

Return reported MRT; argument: Cn1c(C(=O)Nc2cccc(-c3cccc(NC(=O)c4nc5c(n4C)CCN(CC46CCC(C(=O)O)(CC4)C6)C5)c3Cl)c2Cl)nc2c1CCN(CCO)C2 [Example 180] 4.7 h

====

Assign AUC(0-t) to each entry below.
test name: Repeated-dosing pharmacokinetics test
Assay type: in vivo, B-hPD-1/hPD-L1 humanized female mice
details: female, B-hPD-1/hPD-L1 (humanized), mouse, po; humanized mice, 50 mg/kg by gavage once a day for 12 days, plasma on day 12
The reply should be a number in µg·h/mL, with the unit left off.

Quick one: AUC(0-t) of Cn1c(C(=O)Nc2cccc(-c3cccc(NC(=O)c4nc5c(n4C)CCN(CCC46CCC(C(=O)O)(CC4)C6)C5)c3Cl)c2Cl)nc2c1CCN(CCC13CCC(C(=O)O)(CC1)C3)C2 [Example 17] ? 58.8

Recorded AUC(0-t) for Cc1c(Nc2nccc3cc(CN4CC[C@@H](O)C4)cnc23)cccc1-c1cccc(-c2nc3cc(CN4CC[C@@H](C(=O)O)C4)cc(C#N)c3o2)c1C [Compound 14 (INCB086550)] , please? 10.6

Any idea what its AUC(0-t) is? The compound is COCC12CCC(CCN3CCc4c(nc(C(=O)Nc5cccc(-c6cccc(NC(=O)c7nc8c(n7C)CCN(CCC79CCC(C(=O)O)(CC7)C9)C8)c6Cl)c5Cl)n4C)C3)(CC1)C2 [Compound I-6] 151

Reported AUC(0-t) for Cn1c(C(=O)Nc2cccc(-c3cccc(NC(=O)c4nc5c(n4C)CCN(CC46CCC(C(=O)O)(CC4)C6)C5)c3Cl)c2Cl)nc2c1CCN(CCO)C2 [Example 180] : what is it? 27.8

====

test name: Repeated-dosing pharmacokinetics test
Assay type: in vivo, B-hPD-1/hPD-L1 humanized female mice
details: female, B-hPD-1/hPD-L1 (humanized), mouse, po; humanized mice, 50 mg/kg by gavage once a day for 12 days, plasma on day 12
measure name: half-life (h)
Provide only the numeric value, understood in h.

Entry under review: "Cc1c(Nc2nccc3cc(CN4CC[C@@H](O)C4)cnc23)cccc1-c1cccc(-c2nc3cc(CN4CC[C@@H](C(=O)O)C4)cc(C#N)c3o2)c1C" . Reported half-life? 3.7

// returns reported half-life for input "COCC12CCC(CCN3CCc4c(nc(C(=O)Nc5cccc(-c6cccc(NC(=O)c7nc8c(n7C)CCN(CCC79CCC(C(=O)O)(CC7)C9)C8)c6Cl)c5Cl)n4C)C3)(CC1)C2" 9.4

Any idea what its half-life is? The molecule is "Cn1c(C(=O)Nc2cccc(-c3cccc(NC(=O)c4nc5c(n4C)CCN(CCC46CCC(C(=O)O)(CC4)C6)C5)c3Cl)c2Cl)nc2c1CCN(CCC13CCC(C(=O)O)(CC1)C3)C2" 3.9

What value of measured half-life is listed for "Cn1c(C(=O)Nc2cccc(-c3cccc(NC(=O)c4nc5c(n4C)CCN(CC46CCC(C(=O)O)(CC4)C6)C5)c3Cl)c2Cl)nc2c1CCN(CCO)C2" ? 3.3

====

test name: Single-dosing pharmacokinetics test
Type: in vivo, B-hPD-1/hPD-L1 female mice
details: female, B-hPD-1/hPD-L1 (humanized), mouse, po; humanized mice, single dose of 100 mg/kg by gavage, plasma
measure name: half-life (h)
State the answer as a number, implicitly in h.

Could you tell me which half-life is on file for "Cc1c(Nc2nccc3cc(CN4CC[C@@H](O)C4)cnc23)cccc1-c1cccc(-c2nc3cc(CN4CC[C@@H](C(=O)O)C4)cc(C#N)c3o2)c1C" ? 3.9

Given "Cn1c(C(=O)Nc2cccc(-c3cccc(NC(=O)c4nc5c(n4C)CCN(CC46CCC(C(=O)O)(CC4)C6)C5)c3Cl)c2Cl)nc2c1CCN(CCO)C2" , state its recorded half-life. 3.5

Value lookup for half-life; key = "COCC12CCC(CCN3CCc4c(nc(C(=O)Nc5cccc(-c6cccc(NC(=O)c7nc8c(n7C)CCN(CCC79CCC(C(=O)O)(CC7)C9)C8)c6Cl)c5Cl)n4C)C3)(CC1)C2" 9.3

Look at this molecule and give its reported half-life. "Cn1c(C(=O)Nc2cccc(-c3cccc(NC(=O)c4nc5c(n4C)CCN(CCC46CCC(C(=O)O)(CC4)C6)C5)c3Cl)c2Cl)nc2c1CCN(CCC13CCC(C(=O)O)(CC1)C3)C2" 3.8

====

test name: Single-dosing pharmacokinetics test
Format: in vivo, B-hPD-1/hPD-L1 female mice
details: female, B-hPD-1/hPD-L1 (humanized), mouse, po; humanized mice, single dose of 100 mg/kg by gavage, plasma
Assign AUC(0-t) to each entry below.
Record the value in ng·h/mL, omitting the unit from your answer.

Can you look up the measured AUC(0-t) of Cn1c(C(=O)Nc2cccc(-c3cccc(NC(=O)c4nc5c(n4C)CCN(CCC46CCC(C(=O)O)(CC4)C6)C5)c3Cl)c2Cl)nc2c1CCN(CCC13CCC(C(=O)O)(CC1)C3)C2 [Example 17] for me? 118000

Param item = Cc1c(Nc2nccc3cc(CN4CC[C@@H](O)C4)cnc23)cccc1-c1cccc(-c2nc3cc(CN4CC[C@@H](C(=O)O)C4)cc(C#N)c3o2)c1C [Compound 14 (INCB086550)] ; retrieve measured AUC(0-t). 19600

Dear colleague, I am looking for the recorded AUC(0-t) of the following compound: Cn1c(C(=O)Nc2cccc(-c3cccc(NC(=O)c4nc5c(n4C)CCN(CC46CCC(C(=O)O)(CC4)C6)C5)c3Cl)c2Cl)nc2c1CCN(CCO)C2 [Example 180] 45400

# get_value(readout='AUC(0-t)', item= COCC12CCC(CCN3CCc4c(nc(C(=O)Nc5cccc(-c6cccc(NC(=O)c7nc8c(n7C)CCN(CCC79CCC(C(=O)O)(CC7)C9)C8)c6Cl)c5Cl)n4C)C3)(CC1)C2 [Compound I-6] ) 207000

====

experimental system: CD80/PD-L1 binding (recombinant human His-CD80 protein and PD-L1-Fc fusion protein) (Homo sapiens (Human), UniProt Q9NZQ7)
Sequence (Q9NZQ7 19-239): as above
test name: In vitro inhibitory activity against CD80/PD-L1 binding (HTRF)
details: read-out: IC50 for inhibiting CD80/PD-L1 binding in vitro
Consider the following compounds; for each one, report its pIC50.
Scale note: pIC50 = -log10(concentration in M).

Form field: reported pIC50 of COCC12CCC(CCN3CCc4c(nc(C(=O)Nc5cccc(-c6cccc(NC(=O)c7nc8c(n7C)CCN(CC79CCC(C(=O)O)(CC7)C9)C8)c6Cl)c5C)n4C)C3)(CC1)C2 [Compound I-12] 8.79

Report pIC50 for COCC12CCC(CCN3CCc4c(nc(C(=O)Nc5cccc(-c6cccc(NC(=O)c7nc8c(n7C)CCN(CCC79CCC(C(=O)O)(CC7)C9)C8)c6Cl)c5C#N)n4C)C3)(CC1)C2 [Compound I-11] please. 8.84

Suppose we examine the compound COCC12CCC(CN3CCc4c(nc(C(=O)Nc5cccc(-c6cccc(NC(=O)c7nc8c(n7C)CCN(CCC79CCC(C(=O)O)(CC7)C9)C8)c6Cl)c5Cl)n4C)C3)(CC1)C2 [Compound I-8] ; what pIC50 value has been reported? 8.47

I'd like to know its pIC50. The compound in question is Cn1c(C(=O)Nc2cccc(-c3cccc(NC(=O)c4nc5c(n4C)CCN(CCC46CCC(C(=O)O)(CC4)C6)C5)c3Cl)c2Cl)nc2c1CCN(CCC13CCC(COC(F)F)(CC1)C3)C2 [Compound I-7] 9.48

# query: pIC50 of entry COCC12CCC(CCN3CCc4c(nc(C(=O)Nc5cccc(-c6cccc(NC(=O)c7nc8c(n7C)CCN(CCC79CCC(C(=O)O)(CC7)C9)C8)c6Cl)c5Cl)n4C)C3)(CC1)C2 [Compound I-6] 9.07

For the compound COCC12CCC(CCN3CCc4c(nc(C(=O)Nc5cccc(-c6cccc(NC(=O)c7nc8c(n7C)CCN(CCC79CCC(C(=O)O)(CC7)C9)C8)c6Cl)c5F)n4C)C3)(CC1)C2 [Compound I-9] , what pIC50 is on record? 9.39

Fill in the blank: the reported pIC50 of Cn1c(C(=O)Nc2cccc(-c3cccc(NC(=O)c4nc5c(n4C)CCN(CC46CCC(C(=O)O)(CC4)C6)C5)c3Cl)c2Cl)nc2c1CCN(CCO)C2 [Example 180] is ____. 8.26

Find the recorded pIC50 belonging to COCC12CCC(CCCN3CCc4c(nc(C(=O)Nc5cccc(-c6cccc(NC(=O)c7nc8c(n7C)CCN(CCC79CCC(C(=O)O)(CC7)C9)C8)c6C)c5Cl)n4C)C3)(CC1)C2 [Compound I-1] and report it. 9.08

Reported pIC50, compound COCC12CCC(CCN3CCc4c(nc(C(=O)Nc5cccc(-c6cccc(NC(=O)c7nc8c(n7C)CCN(CCC79CCC(C(=O)O)(CC7)C9)C8)c6Cl)c5C)n4C)C3)(CC1)C2 [Compound I-5] : ____ 8.67

Fill blank: measured pIC50 of the compound Cn1c(C(=O)Nc2cccc(-c3cccc(NC(=O)c4nc5c(n4C)CCN(CCC46CCC(C(=O)O)(CC4)C6)C5)c3Cl)c2F)nc2c1CCN(CCC13CCC(COC(F)F)(CC1)C3)C2 [Compound I-10] is ____. 9.21
